Cited source: paper PMC6272869

- Test description: Pharmacokinetic study in rats after single oral administration of GJK (UPLC-MS/MS of plasma)
- Assay type: in vivo, Sprague–Dawley rats
- Test context: Sprague-Dawley, rat, in vivo, po, 24 g/kg, single oral GJK 24 g/kg, n = 6, median (minimum, maximum), read-out: Tmax (time to reach peak concentration) (converted)
- Procedure: Chromatographic analyses were performed using an Agilent 1290 series UPLC system (Agilent Technologies, Santa Clara, CA, USA) equipped with a binary pump, an online degasser, an auto plate sampler, and a thermostatically controlled column compartment. The determination was carried out at 30 °C on a Waters Acquity UPLC C18 column (100 mm × 2.1 mm, […], Waters, Milford, MA, USA). […]
This listing pairs molecules with measured Tmax.

Some entries whose results are on file:
{"columns": ["Molecule", "Recorded metric", "Value observed"],
 "data": [
  ["O=C(/C=C/c1ccc(O)cc1)c1ccc(O)cc1O", "Tmax", "3 h"],
  ["COCC12CCC(OC)C34C5CC6(O)C(OC)C(O)C(O)(C5C6OC(=O)c5ccccc5)C(C(OC)C13)C4N(C)C2 (stereo not shown)", "Tmax", "< 0.767 h"],
  ["COc1cc2c(cc1OC)[C@@H]1Cc3ccc(OC)c(OC)c3CN1CC2 [Tetrahydropalmatine, tetrahydropalmatine]", "Tmax", "3.15 h"]
]}

// next entry
# input Any idea what Tmax was measured for C[C@@]12C[C@@]3(O)O[C@@H](O1)[C@]1(COC(=O)c4ccccc4)[C@H]3C[C@@]12O[C@@H]1O[C@H](CO)[C@@H](O)[C@H](O)[C@H]1O ?
# output < 0.767 h

---

This listing pairs compounds with measured AUC(0-inf).
- Test description: Pharmacokinetic study in rats after single oral administration of GJK (UPLC-MS/MS of plasma)
- Format: in vivo, Sprague–Dawley rats
- Test context: Sprague-Dawley; rat plasma, single oral GJK 24 g/kg, n = 6, AUC0–t extrapolated to infinity, mean ± S.D.
Response body: numeric value in ng·h/mL, unit text excluded.

{"columns": ["Compound", "AUC(0-inf) / ng·h/mL"],
 "data": [
  ["COc1ccc(-c2coc3cc(O[C@@H]4O[C@H](CO)[C@@H](O)[C@H](O)[C@H]4O)ccc3c2=O)cc1O [Calycosin-7-glucoside, calycosin-7-glucoside]", 79.3]
]}

// next entry
# input Any idea what AUC(0-inf) was measured for COc1ccc(-c2coc3cc(O)ccc3c2=O)cc1 ?
# output 18.7

---

- Test description: Stability of the analytes in rat plasma under different storage conditions (QC samples)
- Assay type: in vitro ADME
- Test context: rat, extracted plasma QC samples in auto-sampler, 4 °C for 24 h, high QC concentration, n = 3
Recorded metric: remaining at 24 h (%)
Response body: numeric value in %, unit text excluded.

# input Any idea what remaining at 24 h was measured for COc1ccc(-c2coc3cc(O[C@@H]4O[C@H](CO)[C@@H](O)[C@H](O)[C@H]4O)ccc3c2=O)cc1O [Calycosin-7-glucoside, calycosin-7-glucoside] ?
# output 103

---

- Test description: Stability of the analytes in rat plasma under different storage conditions (QC samples)
- Type: in vitro ADME
- Test context: rat, plasma, extracted plasma QC samples in auto-sampler, 4 °C for 24 h, low QC concentration, n = 3
This listing pairs compounds with measured remaining at 24 h.
Response body: numeric value in %, unit text excluded.

Some entries whose results are on file:
{"columns": ["Compound", "Recorded metric", "Value observed"],
 "data": [
  ["COc1cc2c(cc1OC)[C@@H]1Cc3ccc(OC)c(OC)c3CN1CC2 [Tetrahydropalmatine, tetrahydropalmatine]", "remaining at 24 h", 105],
  ["C[C@@]12C[C@@]3(O)O[C@@H](O1)[C@]1(COC(=O)c4ccccc4)[C@H]3C[C@@]12O[C@@H]1O[C@H](CO)[C@@H](O)[C@H](O)[C@H]1O", "remaining at 24 h", 98.3],
  ["COCC12CCC(OC)C34C5CC6(O)C(OC)C(O)C(O)(C5C6OC(=O)c5ccccc5)C(C(OC)C13)C4N(C)C2 (stereo not shown)", "remaining at 24 h", 107]
]}

// next entry
# input Any idea what remaining at 24 h was measured for O=C(/C=C/c1ccc(O)cc1)c1ccc(O)cc1O ?
# output 94.6
